B1: TPR t1 (parent)
chain: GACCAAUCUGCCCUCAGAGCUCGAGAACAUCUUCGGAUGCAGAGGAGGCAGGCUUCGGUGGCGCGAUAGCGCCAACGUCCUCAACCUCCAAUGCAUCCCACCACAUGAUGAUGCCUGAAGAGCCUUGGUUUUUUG

- Variants of: B1
- procedure_details: polymerase ribozyme fitness, log enrichment relative to wild type (log ratio); higher = more active; in vitro selection for triplet polymerase activity
measured_metric: polymerase ribozyme fitness (log ratio)

C88G G117A :: -2.35
G52A C73U :: -0.414

Ask | Answer with the recorded polymerase ribozyme fitness (log ratio) of C12U G60U G69A C86U C101A U112C only.
Reply | -6.42

Ask | Answer with the recorded polymerase ribozyme fitness (log ratio) of A50G C79G U87G only.
Reply | -0.314

Ask | Answer with the recorded polymerase ribozyme fitness (log ratio) of C72G C85A only.
Reply | -1.82

Ask | Answer with the recorded polymerase ribozyme fitness (log ratio) of C62A U132A only.
Reply | -0.682

Ask | Answer with the recorded polymerase ribozyme fitness (log ratio) of G61A G113C G135A only.
Reply | -2.34

Ask | Answer with the recorded polymerase ribozyme fitness (log ratio) of G19A G71C G127C only.
Reply | -4.23

Ask | Answer with the recorded polymerase ribozyme fitness (log ratio) of G52A G117U only.
Reply | -0.533

Ask | Answer with the recorded polymerase ribozyme fitness (log ratio) of C40U C64U only.
Reply | -0.45

Ask | Answer with the recorded polymerase ribozyme fitness (log ratio) of C11G G19A U38G only.
Reply | -2.63

Ask | Answer with the recorded polymerase ribozyme fitness (log ratio) of C22A C86G C114U only.
Reply | -5.23

Ask | Answer with the recorded polymerase ribozyme fitness (log ratio) of C70G C97U U116A G117A only.
Reply | -5.25
